# Tested on: CAKI-1 renal
# experimental.details: NCI tumour cell line growth inhibition, 48 h
experimental.endpoint: TGI

For orientation, consider the following solved cases.
molecule	target.entity	TGI
COC(=O)CCCNC(=O)C(=O)c1c(O)c(O)c(C(C)C)c2cc(C)c(-c3c(C)cc4c(C(C)C)c(O)c(O)c(C(=O)C(=O)NCCCC(=O)OC)c4c3O)c(O)c12	CAKI-1 renal	> 32.5 µM
CN(C)C1C(=O)C(C(N)=O)=C(O)C2(O)C(=O)C3=C(O)c4c(O)cccc4C(C)(O)C3CC12 (stereo not given)	CAKI-1 renal	> 100 µM
Cc1nc(-n2nc(-c3ccccc3)cc2-c2ccccc2)sc1C(=O)/C=C/c1ccc(Cl)cc1	CAKI-1 renal	62.7 µM
Cc1ccc(-n2c3c(c4c(CN)c(O)ccc42)CCc2ccccc2C3=O)cc1	CAKI-1 renal	26.6 µM
c1ccc(N2N=C3N(c4ccccc4)C2N3c2ccccc2)cc1	CAKI-1 renal	> 100 µM

Attention now shifts to the item below.
TGI in this record for COc1c(Cl)[c]([Hg][O]C(C)=O)c(NCC(C)=O)c(OC)[c]1[Hg][O]C(C)=O : 35.1 µM

The origin of these recorded values is PubChem BioAssay (NCI).
